Target: T1, Latent Activin A (human, UniProt P08476 21-426, limits assumed)
T1 construct: also called INHBA latent
T1 sequence: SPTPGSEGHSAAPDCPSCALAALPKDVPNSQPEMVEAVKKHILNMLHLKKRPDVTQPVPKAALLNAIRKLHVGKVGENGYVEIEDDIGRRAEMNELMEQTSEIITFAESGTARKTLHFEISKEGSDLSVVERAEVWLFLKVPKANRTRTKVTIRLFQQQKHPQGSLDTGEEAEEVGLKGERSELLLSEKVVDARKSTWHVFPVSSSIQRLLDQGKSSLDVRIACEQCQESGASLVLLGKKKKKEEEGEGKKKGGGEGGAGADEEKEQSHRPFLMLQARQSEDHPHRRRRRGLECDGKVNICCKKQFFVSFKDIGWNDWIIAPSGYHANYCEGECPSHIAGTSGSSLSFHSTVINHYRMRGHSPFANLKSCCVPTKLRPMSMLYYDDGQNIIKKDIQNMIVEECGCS
Assay: ELISA, coated antigen, OD450
readout name: fold-change of OD 450 over negative control (BSA) (fold)
Reply numerically in fold, unit not repeated.

stdin: Given the binder AB430 (antibody, IgG1, V domains shown) VH: EVQLVESGGGLVQPGGSLRLSCAASGFTLSNYPMSWVRQAPGKGLELVASTTSGSSTIYYPDSVKGRFTISRDNAKNSLYLQMNSLRAEDTAVYYCARGPDYYAPLRSYMDVWGKGTTVTVSS VL: DIVMTQSPLSLPVTPGEPASISCRSSQSLQQSEGRTYLHWYLQKPGQSPQLLIYDASKRASGVPDRFSGSGSGTDFTLKISRVEAEDVGVYYCMQVLRTPITFGGGTKVEIK , what is its reported fold-change of OD 450 over negative control (BSA)?
stdout: 7.44

stdin: Field request: fold-change of OD 450 over negative control (BSA) | item: AB347 (antibody, IgG1, V domains shown) VH: QVQLQESGPGLVKPSQTLSLTCTVSGFPLSTSRMGVNWIRQPPGKGLEWIGYINPSGATDYNPSLKSRVTMSVDTSKNQFSLKVNSVTAADTAVYYCARAGYPDVWGKGTTVTVSS VL: EIVMTQSPATLSLSPGERATLSCRASQNIGHSLAWYQQKPGQAPRLLIYGASIRAPGIPARFSGSGSGTDFTLTISSLEPEDFAVYYCQQYITWPSTFGGGTKVEIK
stdout: 10.2

stdin: Bench note: what fold-change of OD 450 over negative control (BSA) did AB363 (antibody, IgG1, V domains shown) VH: QVTLRESGPALVKPTQTLTLTCTVSGFSLSTSGATVNWIRQPPGKALEWIGYITSSGRTVYNSALKSRLTISKDTSKNQVVLTMTNMDPVDTATYYCTTTKIVGATLRDYWGQGTLVTVSS VL: DIQMTQSPSSVSASVGDRVTITCRASQGISNDLAWYQQKPGKAPKLLIYDVSNRASGVPSRFSGSGSGTDFTLTISSLQPEDFANYYCQQYDNPPSFGGGTKVEIK show?
stdout: 4.82

stdin: Recorded fold-change of OD 450 over negative control (BSA) for AB843 (antibody, IgG1, V domains shown) VH: EVQLVQSGAEVKKPGASVKVSCKASGDTSSHSHIHWVRQAPGQGLEWMGWINPRSGATNYAQKLQGRGTMTTDPSTSTAYMELRSLRSDDTAVYYCARDRGGRTNGVGAFDIWGQGTMVTVSS VL: ESALTQPASVSGSPGQSITISCTGTSGDIGRYNYVSWYQQHPGKAPKLMIYEDIERPSGVSNRFSGSKSGNTASLTISGLQAEDEADYYCQVWDATLDLVFGGGTKLTVL , please?
stdout: 24.9

stdin: Need fold-change of OD 450 over negative control (BSA), item AB372 (antibody, IgG1, V domains shown) VH: QVTLRESGPALVKPTQTLTLTCTVSGFSLSTSGATVNWIRQPPGKALEWIGYITSSGRTVYNSALKSRLTISKDTSKNQVVLTMTNMDPVDTATYYCTTTKIVGATLRDYWGQGTLVTVSS VL: DIVMTQSPDSLAVSLGERATINCKSSQSVLDTSTNRNYLAWYQQKPGQPPKLLIYGASIRAGGVPDRFSGSGSGTDFTLTISSLQAEDVAVYYCQQSYSHPPTFGGGTKVEIK
stdout: 5.64
